- Measurement protocol: Quantitative High-Throughput drug screen in 47 multiple myeloma cell lines against the NCATS MIPE library collection: KMS27_JCRB cell viability assay (AID 1918970); also: nearly all actives have a fitted effect of over 30% in size
- Conditions: KMS27 myeloma cells, CellTiter-Glo ATP viability, 48 h; series mostly up to 45.8 µM
Inconclusive results are not listed. Activity calls are given as the source filed them. Calls follow the shape of the dose curve; as a rule, active = well fitted cell-killing curve with a large enough effect; inconclusive = small, poorly fitted or top-dose-only effect, or effect the other way; inactive = no such curve, though single readings can be large or run the other way.
Output constraint: value belongs to T (active), F (inactive)

The following molecules have reported results that may help.
INSERT INTO measurements (molecule, label_value) VALUES
  ('O=C(O)c1cccnc1Nc1cccc(C(F)(F)F)c1', 'F'),
  ('O=c1c(O)c(-c2cc(O)c(O)c(O)c2)oc2cc(O)cc(O)c12', 'F'),
  ('Cc1nc(-c2ccc(OCC(C)C)c(C#N)c2)sc1C(=O)O', 'F');

Incoming: Please let me know the test result on file for Clc1ccc2c(N3CCN(CCCN4CCN(c5ccnc6cc(Cl)ccc56)CC4)CC3)ccnc2c1 .
Outgoing: F

Incoming: Give the logged outcome of this assay for the following molecule: CC1(C)NC(=O)N(c2ccc([N+](=O)[O-])c(C(F)(F)F)c2)C1=O
Outgoing: F

Incoming: GET /call?item= CN(C)CCCC1(c2ccc(F)cc2)OCc2cc(C#N)ccc21 (stereo not given) returns the recorded outcome of this test.
Outgoing: F
